CONDITION_SET: rat, in vivo, po, pH 7.4
OUTCOME_MEASURE: Log Po
Format: numeric value only, no unit, no commentary.

COMPOUND: CC(=O)CC(c1ccccc1)c1c(O)c2ccccc2oc1=O (centres unmarked)
Log Po: −0.29

COMPOUND: OCCCCCCO
Log Po: −3.42

COMPOUND: COC(=O)[C@H]1[C@H]2C[C@@H]3c4[nH]c5cc(OC)ccc5c4CCN3C[C@H]2C[C@@H](OC(=O)c2cc(OC)c(OC)c(OC)c2)[C@@H]1OC
Log Po: −2.97

COMPOUND: Cc1c(I)c(=O)n(-c2ccccc2)n1C [Iodoantipyrine]
Log Po: −2.81

Exercise: Looking for the measured Log Po of O=C(O)CCCc1ccc(N(CCCl)CCCl)cc1 , can you help?
Solution: −0.74

----------
CONDITION_SET: calculated at brain blood flow […], with rat serum fu
OUTCOME_MEASURE: Brain vascular extraction (total)
Note: state the figure and append the unit.

COMPOUND: Nc1c(O)cccc1C(=O)O [3-hydroxy-anthranilic acid]
OUTCOME_MEASURE: Brain vascular extraction (total)
VALUE_REPORTED: 0.54%
--
COMPOUND: OCCCCCCO
OUTCOME_MEASURE: Brain vascular extraction (total)
VALUE_REPORTED: 75.9%
--
COMPOUND: O=C1NC(=O)C(c2ccccc2)(c2ccccc2)N1
OUTCOME_MEASURE: Brain vascular extraction (total)
VALUE_REPORTED: 15.2%
--
COMPOUND: O=C(CO)[C@@H](O)[C@H](O)[C@H](O)CO
OUTCOME_MEASURE: Brain vascular extraction (total)
VALUE_REPORTED: 2.39E-04%

Exercise: Looking for the measured Brain vascular extraction (total) of Cc1cc(=O)n(-c2ccccc2)n1C [Antipyrine] , can you help?
Solution: 59.7%

Exercise: Looking for the measured Brain vascular extraction (total) of Fc1ccc([C@@H]2CCNC[C@H]2COc2ccc3c(c2)OCO3)cc1 , can you help?
Solution: 7.4%

Exercise: Looking for the measured Brain vascular extraction (total) of CC(O)CO (stereo not shown) , can you help?
Solution: 8.6%
